All figures here come from patent US20220153853A1.

In this section we review reported Imax values for a set of binders.
- target or test system: human GCGR (full-length glucagon receptor of 477 amino acids) (human, UniProt P47871 26-477)
- Sequence (P47871 26-477 limits assumed): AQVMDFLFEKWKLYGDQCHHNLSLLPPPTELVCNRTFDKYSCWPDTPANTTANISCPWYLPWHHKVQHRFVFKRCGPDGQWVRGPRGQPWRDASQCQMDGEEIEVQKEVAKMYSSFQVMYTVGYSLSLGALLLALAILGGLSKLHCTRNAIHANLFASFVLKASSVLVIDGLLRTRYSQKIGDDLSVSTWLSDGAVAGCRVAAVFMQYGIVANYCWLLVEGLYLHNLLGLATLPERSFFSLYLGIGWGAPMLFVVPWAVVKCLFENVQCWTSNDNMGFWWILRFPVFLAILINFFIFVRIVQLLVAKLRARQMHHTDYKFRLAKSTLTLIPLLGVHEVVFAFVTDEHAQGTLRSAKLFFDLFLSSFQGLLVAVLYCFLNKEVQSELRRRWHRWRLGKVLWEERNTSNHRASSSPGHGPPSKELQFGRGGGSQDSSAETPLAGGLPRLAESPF
- assay name: cell-based or functional assay
Entry rule: numbers only, all in %.

binder	value measured
ch1817 (antibody, human IgG4 S228P, kappa, F234A L235A, V domains shown, IgG4-AA / kappa chimeric antibody) VH: EVQLVESGGDLVQPGRSMKLSCAASGFTFSNYYMAWVRQAPTKGLEWVASISTGGVNTYYRDSVKGRFTISRDNAKNNLYLQMDSLRSEETATYYCARHTTADYFYGIYFALDAWGQGTSVTVSS VL: QFTLTQPKSVSGSLRSTITIPCERSSGDIGDSYVNWYQQHLGRPPLNVIYADVQRPSEVSDRFSGSIDSSSNSASLTITNLQMDDEADYFCQSYDTNIDIIFGGGTKLTVLR	83

Please look up its Imax: ch1803 (antibody, human IgG4 S228P, kappa, F234A L235A, V domains shown, IgG4-AA / kappa chimeric antibody) VH: QFQLHQSGAELVKPGASVKLSCKATGYTFTDYWIEWVKQRPGHGLEWIGEILPGSTYTNYNEKFKGRATFTAEPSSSSAYMQLSGLTTEDSAIYYCSRGLSTLMAVDYFDYWGQGTTLTVSS VL: DIQMTQTTSSLSASLGDRVTINCRASQDISNYLNWYQQKPDGTVKLLIYYSSTLHSGVPSRFSGSGSGTDYSLTISHLEQEDIATYFCQQTNIFPWTFGGGTKLEIRT
100
